- method notes: recombinant UMI read abundance after kanamycin selection (control-corrected) (log10(CPM+1)); higher = more efficient recombination; extreme values may be limits of the assay; sequences stand for … in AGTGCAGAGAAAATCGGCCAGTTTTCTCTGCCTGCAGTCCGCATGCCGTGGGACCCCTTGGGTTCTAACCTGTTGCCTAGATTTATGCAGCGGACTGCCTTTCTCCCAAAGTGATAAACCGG…AGGTTGGTTTCACT; site = the 11-nt donor
endpoint: recombinant UMI read abundance (log10)

>  <record sequence>
CATAGCACATGGACCGGTTTTCCCGGTAATCCGTATTTGTA (site CATAGCACTTA)

>  <result>
1.96

$$$$
>  <record sequence>
CCATCATCATGGACCGGTTTTCCCGGTAATCCGTATTTGCA (site CGATCATCTAG)

>  <result>
0

$$$$
>  <record sequence>
TCGCCGGCATGGACCGGTTTTCCCGGTAATCCGTATTTGGC (site TTGCCGGCTGC)

>  <result>
0

$$$$
>  <record sequence>
GGCAAACCATGGACCGGTTTTCCCGGTAATCCGTATTTGGT (site GTCAAACCTAC)

>  <result>
0

$$$$
>  <record sequence>
CTGGCACCATGGACCGGTTTTCCCGGTAATCCGTATTTGGC (site CTGGCACCTGC)

>  <result>
0.523

$$$$
>  <record sequence>
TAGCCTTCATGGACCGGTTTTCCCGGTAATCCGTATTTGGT (site TAGTCTTCTAC)

>  <result>
0

$$$$
>  <record sequence>
CGGGAGTCATGGACCGGTTTTCCCGGTAATCCGTATTTGCG (site CGGGAGTCTCG)

>  <result>
2.8

$$$$
>  <record sequence>
CCGCTTACATGGACCGGTTTTCCCGGTAATCCGTATTTGCT (site CCGGTTACTAG)

>  <result>
0

$$$$
>  <record sequence>
GGTGCACCATGGACCGGTTTTCCCGGTAATCCGTATTTGCA (site GGTGCACCTTG)

>  <result>
0

$$$$

====

- method notes: recombinant barcode read abundance after kanamycin selection (control-corrected) (log10(CPM+1)); higher = more efficient recombination; sequences stand for … in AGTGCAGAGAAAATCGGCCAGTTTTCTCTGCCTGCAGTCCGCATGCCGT…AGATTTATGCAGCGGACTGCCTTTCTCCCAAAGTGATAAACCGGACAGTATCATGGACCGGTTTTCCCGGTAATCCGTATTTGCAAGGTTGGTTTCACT; site = the 11-nt target
Examples of sequences with documented recombinant barcode read abundance (log10) follow.
endpoint: recombinant barcode read abundance (log10)

>  <record sequence>
TATGCGGCTTGGGTTCTAACCTGTTGCCT (site TATGGGGCTAG)

>  <result>
0.193

$$$$
>  <record sequence>
CTGCCCTCTTGGGTTCTAACCTGTTGCCT (site CAGCCCTCTAG)

>  <result>
0.932

$$$$
>  <record sequence>
ATGTCTACTTGGGTTCTAACCTGTTGCCA (site ATAACTACTTG)

>  <result>
0.0597

$$$$
>  <record sequence>
CTACCTACTTGGGTTCTAACCTGTTGCGG (site CTACCTACTCC)

>  <result>
2.72

$$$$
>  <record sequence>
GTTTATACTTGGGTTCTAACCTGTTGCCT (site GTTTATACTAG)

>  <result>
0.305

$$$$
>  <record sequence>
GTGGTAGCTTGGGTTCTAACCTGTTGCCT (site GTGGTAGCTAG)

>  <result>
1.42

$$$$
>  <record sequence>
CTAAGAACTTGGGTTCTAACCTGTTGCCT (site CTAAGAACTAG)

>  <result>
0.604

$$$$
>  <record sequence>
GCTCAGGCTTGGGTTCTAACCTGTTGCCT (site GCTCAGTCTAG)

>  <result>
0.202

$$$$
>  <record sequence>
TAGCCTACTTGGGTTCTAACCTGTTGCGT (site TAGCCTACTAC)

>  <result>
0.581

$$$$
>  <record sequence>
AGAGAGACTTGGGTTCTAACCTGTTGCCT (site AGAGCGACTAG)

>  <result>
0.0685

$$$$
>  <record sequence>
AGCCCTCCTTGGGTTCTAACCTGTTGCAT (site AGCCCTCCTAT)

>  <result>
1.41

$$$$
>  <record sequence>
TCGAGGCCTTGGGTTCTAACCTGTTGCTA (site CATCCATCTAT)

>  <result>
0.162

$$$$
>  <record sequence>
GGAATCCCTTGGGTTCTAACCTGTTGCCT (site GGAATACCTAG)

>  <result>
0.0974

$$$$
>  <record sequence>
ACCAGTCCTTGGGTTCTAACCTGTTGCTG (site ACCAGTCCTCA)

>  <result>
1.97

$$$$
>  <record sequence>
CATGCTCCTTGGGTTCTAACCTGTTGCAT (site CATGCTCCTAG)

>  <result>
0.168

$$$$
>  <record sequence>
CACGGTCCTTGGGTTCTAACCTGTTGCCT (site CTCGGTGCTAG)

>  <result>
0.0233

$$$$
>  <record sequence>
CGAGTGACTTGGGTTCTAACCTGTTGCCA (site CGAGTGACTTG)

>  <result>
0.906

$$$$
>  <record sequence>
CAATATCCTTGGGTTCTAACCTGTTGCCT (site CACTATCCTAG)

>  <result>
0.0197

$$$$
>  <record sequence>
AGCCCTCCTTGGGTTCTAACCTGTTGCTA (site AGCCCTCCTGA)

>  <result>
0.222

$$$$
>  <record sequence>
GCGGACTCTTGGGTTCTAACCTGTTGCCA (site GCGGACTCTTG)

>  <result>
2.09

$$$$
>  <record sequence>
CCTTCTCCTTGGGTTCTAACCTGTTGCAT (site CCTTCTCCTAT)

>  <result>
0.319

$$$$
>  <record sequence>
GCCAGACCTTGGGTTCTAACCTGTTGCCT (site GCCACACCTAG)

>  <result>
0.0708

$$$$
>  <record sequence>
TCAGGATCTTGGGTTCTAACCTGTTGCCT (site TCAGAATCTAG)

>  <result>
0.201

$$$$
>  <record sequence>
AGGTTCCCTTGGGTTCTAACCTGTTGCTC (site AGGTTCCCTCA)

>  <result>
0.101

$$$$
>  <record sequence>
GGGGCTTCTTGGGTTCTAACCTGTTGCAT (site GGGACTTCTAT)

>  <result>
0.158

$$$$
>  <record sequence>
GTGGGCCCTTGGGTTCTAACCTGTTGCTG (site GTGGGCCCTCA)

>  <result>
2.73

$$$$
>  <record sequence>
ATGGCGGCTTGGGTTCTAACCTGTTGCCT (site GTGGAGGCTAG)

>  <result>
0.0374

$$$$
>  <record sequence>
ACTTAGCCTTGGGTTCTAACCTGTTGCAT (site ACTTAGCCTAG)

>  <result>
1.48

$$$$
>  <record sequence>
GCAGAGTCTTGGGTTCTAACCTGTTGCCT (site GTAGAGTCTAG)

>  <result>
1.06

$$$$
>  <record sequence>
CAGTACTCTTGGGTTCTAACCTGTTGCCT (site CAGTAGTCTAG)

>  <result>
0.1

$$$$
>  <record sequence>
TGTAATTCTTGGGTTCTAACCTGTTGCCT (site TGTAATACTAG)

>  <result>
0.139

$$$$
>  <record sequence>
GGGCAGGCTTGGGTTCTAACCTGTTGCCT (site ATCGTATCTGC)

>  <result>
0.189

$$$$
>  <record sequence>
AGATTAGCTTGGGTTCTAACCTGTTGCCG (site AGATTAGCTCG)

>  <result>
1.13

$$$$
>  <record sequence>
TAGTGAGCTTGGGTTCTAACCTGTTGCCG (site TAGTGAGCTCG)

>  <result>
1.44

$$$$
>  <record sequence>
CTAAGATCTTGGGTTCTAACCTGTTGCCT (site CGAAGATCTAG)

>  <result>
0.0614

$$$$
>  <record sequence>
TCTAAGTCTTGGGTTCTAACCTGTTGCCT (site TCTAAGTCTGG)

>  <result>
0.172

$$$$
>  <record sequence>
TGTGCGTCTTGGGTTCTAACCTGTTGCCT (site TGTGCGTCTAG)

>  <result>
0.801

$$$$
>  <record sequence>
CAGCGTGCTTGGGTTCTAACCTGTTGCCT (site CCGCGTGCTAG)

>  <result>
0.318

$$$$
>  <record sequence>
GGCCGGTCTTGGGTTCTAACCTGTTGCCT (site GGCCGGGCTAG)

>  <result>
0.0483

$$$$
>  <record sequence>
GTAGTTCCTTGGGTTCTAACCTGTTGCCT (site GTAGTTCCTAG)

>  <result>
1.6

$$$$
>  <record sequence>
CGCTGGTCTTGGGTTCTAACCTGTTGCCT (site CGCTCGTCTAG)

>  <result>
0.145

$$$$
>  <record sequence>
TAGTCGACTTGGGTTCTAACCTGTTGCTT (site TAGTCGACTAA)

>  <result>
0.103

$$$$
